# Assay Name: Terminal half life in human at 20 mg administered under fasting condition
# Assay type: ADME, organism-based
# Measurement Context: in vivo, read-out: beta t1/2 (converted)
Readout Label: half-life (days)

>>> measured_value("Nc1nc(=O)n([C@@H]2C=C[C@H](CO)O2)cc1F")
2.44

* * *

# Assay Name: AUC (0 to infinity) in human at 20 mg administered under fasting condition
# Assay type: ADME, organism-based
# Set-up: dose 20 mg, time infinity
# Measurement Context: plasma
Readout Label: AUC(0-inf) (ng·h/mL)

>>> measured_value("Nc1nc(=O)n([C@@H]2C=C[C@H](CO)O2)cc1F [ELVUCITABINE]")
1240

* * *

# Assay Name: Central volume of distribution with respect to the bioavailability in human at 20 mg administered under fasting condition
# Type: ADME, organism-based
# Measurement Context: in vivo, read-out: Vc/F
Readout Label: Vd/F (L)

>>> measured_value("Nc1nc(=O)n([C@@H]2C=C[C@H](CO)O2)cc1F [ELVUCITABINE]")
26.1

* * *

# Assay Name: Half life in human at 20 mg administered under fasting condition in presence of 300 mg of ritonavir
# Format: ADME, organism-based
# Measurement Context: in vivo
Readout Label: half-life (h)

>>> measured_value("Nc1nc(=O)n([C@@H]2C=C[C@H](CO)O2)cc1F")
54.2

* * *

# Assay Name: Cmax in human at 20 mg administered under fasting condition
# Measurement Context: in vivo
Readout Label: Cmax (ng/mL)

>>> measured_value("Nc1nc(=O)n([C@@H]2C=C[C@H](CO)O2)cc1F")
136

* * *

# Assay Name: Half life in human at 20 mg administered under fasting condition
# Assay type: ADME, organism-based
# Measurement Context: in vivo
Readout Label: half-life (h)

>>> measured_value("Nc1nc(=O)n([C@@H]2C=C[C@H](CO)O2)cc1F")
59.1

* * *

# Assay Name: Tmax in human at 20 mg administered under fasting condition
# Format: ADME, organism-based
# Measurement Context: in vivo
Readout Label: Tmax (h)

>>> measured_value("Nc1nc(=O)n([C@@H]2C=C[C@H](CO)O2)cc1F [ELVUCITABINE]")
3.78

* * *

# Assay Name: AUC (0 to infinity) in human at 20 mg administered under fasting condition in presence of 300 mg of ritonavir
# Type: ADME, organism-based
# Parameters: dose 20 mg, time infinity
# Measurement Context: plasma
Readout Label: AUC(0-inf) (ng·h/mL)

>>> measured_value("Nc1nc(=O)n([C@@H]2C=C[C@H](CO)O2)cc1F")
979

* * *

# Assay Name: AUC (0 to t) in human at 20 mg administered under fasting condition in presence of 300 mg of ritonavir
# Assay type: ADME, organism-based
# Measurement Context: plasma
Readout Label: AUC(0-t) (ng·h/mL)

>>> measured_value("Nc1nc(=O)n([C@@H]2C=C[C@H](CO)O2)cc1F")
790

* * *

# Assay Name: Volume of distribution at steady state with respect to the bioavailability in human at 20 mg administered under fasting condition presence of 300 mg of ritonavir
# Type: ADME, organism-based
# Measurement Context: in vivo, read-out: Vss/F
Readout Label: Vd/F (L)

>>> measured_value("Nc1nc(=O)n([C@@H]2C=C[C@H](CO)O2)cc1F")
921
